Entry source: paper PMC6463675

- target-or-test-system: CYP3A4 (Homo sapiens, UniProt P08684)
- Sequence (P08684 2-503 limits assumed): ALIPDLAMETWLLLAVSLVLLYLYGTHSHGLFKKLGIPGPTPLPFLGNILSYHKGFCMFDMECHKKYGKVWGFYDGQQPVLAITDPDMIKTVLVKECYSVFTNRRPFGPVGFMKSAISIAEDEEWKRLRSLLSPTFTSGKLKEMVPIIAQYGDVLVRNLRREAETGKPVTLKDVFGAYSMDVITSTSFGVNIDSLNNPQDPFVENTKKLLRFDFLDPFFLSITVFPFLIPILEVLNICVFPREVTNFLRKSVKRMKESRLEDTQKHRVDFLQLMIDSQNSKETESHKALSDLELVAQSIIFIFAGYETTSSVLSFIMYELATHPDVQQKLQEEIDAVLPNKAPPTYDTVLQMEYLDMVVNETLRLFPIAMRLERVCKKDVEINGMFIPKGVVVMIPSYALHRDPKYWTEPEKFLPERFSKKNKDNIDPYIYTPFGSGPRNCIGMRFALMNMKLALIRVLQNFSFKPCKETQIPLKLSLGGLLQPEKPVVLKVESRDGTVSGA
- protocol-description: Kinetic analysis in recombinant human CYP3A4
- Assay type: in vitro ADME
- Set-up: purchased Corning 456202; host or cells: baculovirus infected insect cells (BTI-TN-5B1-4)
- assay-conditions: recombinant human CYP3A4; substrate 5, 10, 20, 40 μM; 37°C 90 min; n = 3
attribute-measured: Km (µM)
Expressed in µM, but write only the number.

Hello, I am looking for reported Km with CYP3A4 (Homo sapiens, UniProt P08684) for `COC[C@]12CN(C)[C@@H]3[C@@H]4[C@H](OC)[C@H]1[C@@]3([C@@H](OC)C[C@H]2O)[C@@H]1C[C@@]2(O)[C@H](OC(=O)c3ccccc3)[C@@H]1[C@]4(OC(C)=O)[C@@H](O)[C@@H]2OC` . Could you help?
131
